What % growth at 10 µM was measured for each of the following?
- System: UACC-62
- Type: cell-based
- CONDITION_DESCRIPTION: Homo sapiens, one dose 10^-5 M, 48 h
Reply with just the number (in %).

Tell me reported % growth at 10 µM for "COc1ccc(C=NNC(=N)c2c(N)nc(S)nc2-c2ccc(Cl)cc2Cl)cc1" , tested with UACC-62.
97.2

Next compound up: "N=C(NN=Cc1ccc(Br)cc1)c1c(N)nc(S)nc1-c1ccc(Cl)cc1"
82.4

Request: "N=C(NN=Cc1ccc(Cl)cc1)c1c(N)nc(S)nc1-c1ccc(Cl)cc1Cl"
90.9

# repeat for "N=C(NN=Cc1ccc(Cl)cc1Cl)c1c(N)nc(S)nc1-c1ccc(Cl)cc1"
43.1

Another compound to check: "CN(C)c1ccc(-c2nc(S)nc(N)c2-c2ncn[nH]2)cc1"
102

====

Hi there, I'd appreciate the recorded activity at 10 µM for every entry that follows.
- Tested on: SK-MEL-5
- Assay type: cell-based
- CONDITION_DESCRIPTION: Homo sapiens, one dose 10^-5 M, 48 h, read-out: % growth
Don't forget the unit after the value.

# query: activity at 10 µM | item "N=C(NN=Cc1ccc(Br)cc1)c1c(N)nc(S)nc1-c1ccc(Cl)cc1Cl" | system: SK-MEL-5
104%

Another compound: "N=C(NN=Cc1ccc([N+](=O)[O-])cc1)c1c(N)nc(S)nc1-c1ccc(Cl)cc1"
101%

Same again, this time with "N=C(NN=Cc1ccc(Br)cc1)c1c(N)nc(S)nc1-c1ccc(Cl)cc1"
93.3%

Query "N=C(NN=Cc1ccc(Cl)cc1)c1c(N)nc(S)nc1-c1ccc(Cl)cc1" next
97.3%

====

- Test system: full NCI 60 cell lines panel
- CONDITION_DESCRIPTION: Homo sapiens, 60 cell, 48 h, read-out: Mean % growth
Exercise: state measured activity at 10 µM for each of the molecules provided.
// return numeric value only (unit: %, not printed)

Item N#Cc1c(N)nc(S)nc1-c1ccc(Cl)cc1 [Compound 1b] has what recorded activity at 10 µM?
75.7

Cool, now N=C(NN=Cc1ccc([N+](=O)[O-])cc1)c1c(N)nc(S)nc1-c1ccc(Cl)cc1Cl [Compound 4o]
93.5

Lookup N=C(NN=Cc1ccc(Cl)cc1)c1c(N)nc(S)nc1-c1ccc(Cl)cc1Cl [Compound 4n]
97.2

Would you kindly repeat that for N=C(NN=Cc1ccc(Cl)cc1Cl)c1c(N)nc(S)nc1-c1ccc(Cl)cc1Cl [Compound 4r] ?
104

How about CN(C)c1ccc(-c2nc(S)nc(N)c2C(=N)NN=Cc2ccccc2)cc1 [Compound 4a] ?
104

# iterate: N=C(NN=Cc1ccc([N+](=O)[O-])cc1)c1c(N)nc(S)nc1-c1ccc(Cl)cc1 [Compound 4i]
101

Please do the same for CN(C)c1ccc(-c2nc(S)nc(N)c2C#N)cc1 [Compound 1a] as well.
96.6

Now try COc1ccc(/C=N\NC(=N)c2c(N)nc(S)nc2-c2ccc(N(C)C)cc2)cc1 [Compound 4d] .
101

Same question, CN(C)c1ccc(-c2cc([N+](=O)[O-])ccc2C=NNC(=N)c2cnc(S)nc2N)cc1 [Compound 4c] this time
103

Same lookup for N=C(NN=Cc1ccc(Cl)cc1)c1c(N)nc(S)nc1-c1ccc(Cl)cc1 [Compound 4h] , please.
91

Param item: CN(C)c1ccc(-c2nc(S)nc(N)c2-c2ncn[nH]2)cc1 [Compound 5a]
107

Next record, please: COc1ccc(C=NNC(=N)c2c(N)nc(S)nc2-c2ccc(Cl)cc2Cl)cc1 [Compound 4p]
104

What about this molecule? N=C(NN=Cc1ccc(Cl)cc1Cl)c1c(N)nc(S)nc1-c1ccc(Cl)cc1 [Compound 4l]
68.3

Try Nc1nc(S)nc(-c2ccc(Cl)cc2)c1-c1ncn[nH]1 [Compound 5b] next.
98.4

Now the molecule N=C(NN=Cc1ccc(Br)cc1)c1c(N)nc(S)nc1-c1ccc(Cl)cc1Cl [Compound 4q]
104

Next molecule: CN(C)c1ccc(-c2nc(S)nc(N)c2C(=N)NN=Cc2ccc(Br)cc2)cc1 [Compound 4e]
104

Also check COc1ccc(C=NNC(=N)c2c(N)nc(S)nc2-c2ccc(Cl)cc2)cc1 [Compound 4j]
103

Then this molecule: N#Cc1c(N)nc(S)nc1-c1ccc(Cl)cc1Cl [Compound 1c]
53.3

====

- Test system: HL-60(TB)
- Type: cell-based
- CONDITION_DESCRIPTION: Homo sapiens, one dose 10^-5 M, 48 h
Answer each item with its documented % growth at 10 µM.
// units = %; emit number, no label

What % growth at 10 µM value was documented for this molecule, N#Cc1c(N)nc(S)nc1-c1ccc(Cl)cc1Cl [Compound 1c] ?
5.3

Same question for CN(C)c1ccc(-c2nc(S)nc(N)c2C(=N)NN=Cc2ccc(Br)cc2)cc1 [Compound 4e] please.
91.6

Try N#Cc1c(N)nc(S)nc1-c1ccc(Cl)cc1 [Compound 1b] next.
69.6

Similarly, N=C(NN=Cc1ccc([N+](=O)[O-])cc1)c1c(N)nc(S)nc1-c1ccc(Cl)cc1 [Compound 4i] ?
97.3

Would you kindly repeat that for N=C(NN=Cc1ccc(Cl)cc1)c1c(N)nc(S)nc1-c1ccc(Cl)cc1Cl [Compound 4n] ?
108

Next entry: CN(C)c1ccc(-c2nc(S)nc(N)c2C#N)cc1 [Compound 1a]
94

Input N=C(NN=Cc1ccccc1)c1c(N)nc(S)nc1-c1ccc(Cl)cc1 [Compound 4g]
97

Moving on to N=C(NN=Cc1ccc(Cl)cc1)c1c(N)nc(S)nc1-c1ccc(Cl)cc1 [Compound 4h]
101

Subsequent entry: COc1ccc(C=NNC(=N)c2c(N)nc(S)nc2-c2ccc(Cl)cc2Cl)cc1 [Compound 4p]
96.9

Ok, now Nc1nc(S)nc(-c2ccc(Cl)cc2Cl)c1-c1ncn[nH]1 [Compound 5c]
70.9

Continue with CN(C)c1ccc(-c2nc(S)nc(N)c2C(=N)NN=Cc2ccccc2)cc1 [Compound 4a]
94.7

Moving on to the next molecule: N=C(NN=Cc1ccc(Cl)cc1Cl)c1c(N)nc(S)nc1-c1ccc(Cl)cc1Cl [Compound 4r]
102

Same again, this time with N=C(NN=Cc1ccc(Br)cc1)c1c(N)nc(S)nc1-c1ccc(Cl)cc1Cl [Compound 4q]
96.5

Do the same for N=C(NN=Cc1ccccc1)c1c(N)nc(S)nc1-c1ccc(Cl)cc1Cl [Compound 4m] please
97.1

Next entry: Nc1nc(S)nc(-c2ccc(Cl)cc2)c1-c1ncn[nH]1 [Compound 5b]
108

Similarly, N=C(NN=Cc1ccc([N+](=O)[O-])cc1)c1c(N)nc(S)nc1-c1ccc(Cl)cc1Cl [Compound 4o] ?
103

Another molecule: CN(C)c1ccc(-c2nc(S)nc(N)c2-c2ncn[nH]2)cc1 [Compound 5a]
84.4

And the next one, N=C(NN=Cc1ccc(Br)cc1)c1c(N)nc(S)nc1-c1ccc(Cl)cc1 [Compound 4k] ?
119

====

- Test system: ACHN
- Type: cell-based
- CONDITION_DESCRIPTION: Homo sapiens, one dose 10^-5 M, 48 h
REPORTED_METRIC: % growth at 10 µM (%)
Please give a number only; it is taken to be in %.

Item CN(C)c1ccc(-c2nc(S)nc(N)c2C(=N)NN=Cc2ccc(Cl)cc2Cl)cc1 [Compound 4f] has what recorded % growth at 10 µM?
107

N=C(NN=Cc1ccccc1)c1c(N)nc(S)nc1-c1ccc(Cl)cc1Cl [Compound 4m] ?
108

Would you kindly repeat that for N=C(NN=Cc1ccc([N+](=O)[O-])cc1)c1c(N)nc(S)nc1-c1ccc(Cl)cc1 [Compound 4i] ?
92.1

Can you check N=C(NN=Cc1ccc([N+](=O)[O-])cc1)c1c(N)nc(S)nc1-c1ccc(Cl)cc1Cl [Compound 4o] next?
88.8

What about this compound? COc1ccc(/C=N\NC(=N)c2c(N)nc(S)nc2-c2ccc(N(C)C)cc2)cc1 [Compound 4d]
103

Then this compound: N=C(NN=Cc1ccccc1)c1c(N)nc(S)nc1-c1ccc(Cl)cc1 [Compound 4g]
23.3

Then what about the compound CN(C)c1ccc(-c2nc(S)nc(N)c2C#N)cc1 [Compound 1a] ?
98

What would you report for N=C(NN=Cc1ccc(Cl)cc1)c1c(N)nc(S)nc1-c1ccc(Cl)cc1 [Compound 4h] ?
77.2

Now the same for Nc1nc(S)nc(-c2ccc(Cl)cc2)c1-c1ncn[nH]1 [Compound 5b]
96.9

Try this compound next: N=C(NN=Cc1ccc(Br)cc1)c1c(N)nc(S)nc1-c1ccc(Cl)cc1 [Compound 4k]
77.3

Another compound: CN(C)c1ccc(-c2nc(S)nc(N)c2C(=N)NN=Cc2ccc(Cl)cc2)cc1 [Compound 4b]
102

Could you do the same for CN(C)c1ccc(-c2nc(S)nc(N)c2C(=N)NN=Cc2ccccc2)cc1 [Compound 4a] , please?
101

// query: COc1ccc(C=NNC(=N)c2c(N)nc(S)nc2-c2ccc(Cl)cc2)cc1 [Compound 4j]
97.4

Also check CN(C)c1ccc(-c2cc([N+](=O)[O-])ccc2C=NNC(=N)c2cnc(S)nc2N)cc1 [Compound 4c]
103

Subsequent entry: COc1ccc(C=NNC(=N)c2c(N)nc(S)nc2-c2ccc(Cl)cc2Cl)cc1 [Compound 4p]
110

And then N=C(NN=Cc1ccc(Cl)cc1)c1c(N)nc(S)nc1-c1ccc(Cl)cc1Cl [Compound 4n] , what is it?
83.7

Okay, and CN(C)c1ccc(-c2nc(S)nc(N)c2C(=N)NN=Cc2ccc(Br)cc2)cc1 [Compound 4e] ?
105

Also check N=C(NN=Cc1ccc(Br)cc1)c1c(N)nc(S)nc1-c1ccc(Cl)cc1Cl [Compound 4q]
108

Try CN(C)c1ccc(-c2nc(S)nc(N)c2-c2ncn[nH]2)cc1 [Compound 5a] next.
119

Try the compound N#Cc1c(N)nc(S)nc1-c1ccc(Cl)cc1Cl [Compound 1c]
19.6

Another compound to look at: N#Cc1c(N)nc(S)nc1-c1ccc(Cl)cc1 [Compound 1b]
77.2

Quick one: N=C(NN=Cc1ccc(Cl)cc1Cl)c1c(N)nc(S)nc1-c1ccc(Cl)cc1Cl [Compound 4r]
107

Please answer likewise for N=C(NN=Cc1ccc(Cl)cc1Cl)c1c(N)nc(S)nc1-c1ccc(Cl)cc1 [Compound 4l]
53.2

What about this compound? Nc1nc(S)nc(-c2ccc(Cl)cc2Cl)c1-c1ncn[nH]1 [Compound 5c]
109
